Known IC50 of a selection of compounds
# Test Target: human neurotrypsin (Homo sapiens)
# Sequence (P56730 21-875): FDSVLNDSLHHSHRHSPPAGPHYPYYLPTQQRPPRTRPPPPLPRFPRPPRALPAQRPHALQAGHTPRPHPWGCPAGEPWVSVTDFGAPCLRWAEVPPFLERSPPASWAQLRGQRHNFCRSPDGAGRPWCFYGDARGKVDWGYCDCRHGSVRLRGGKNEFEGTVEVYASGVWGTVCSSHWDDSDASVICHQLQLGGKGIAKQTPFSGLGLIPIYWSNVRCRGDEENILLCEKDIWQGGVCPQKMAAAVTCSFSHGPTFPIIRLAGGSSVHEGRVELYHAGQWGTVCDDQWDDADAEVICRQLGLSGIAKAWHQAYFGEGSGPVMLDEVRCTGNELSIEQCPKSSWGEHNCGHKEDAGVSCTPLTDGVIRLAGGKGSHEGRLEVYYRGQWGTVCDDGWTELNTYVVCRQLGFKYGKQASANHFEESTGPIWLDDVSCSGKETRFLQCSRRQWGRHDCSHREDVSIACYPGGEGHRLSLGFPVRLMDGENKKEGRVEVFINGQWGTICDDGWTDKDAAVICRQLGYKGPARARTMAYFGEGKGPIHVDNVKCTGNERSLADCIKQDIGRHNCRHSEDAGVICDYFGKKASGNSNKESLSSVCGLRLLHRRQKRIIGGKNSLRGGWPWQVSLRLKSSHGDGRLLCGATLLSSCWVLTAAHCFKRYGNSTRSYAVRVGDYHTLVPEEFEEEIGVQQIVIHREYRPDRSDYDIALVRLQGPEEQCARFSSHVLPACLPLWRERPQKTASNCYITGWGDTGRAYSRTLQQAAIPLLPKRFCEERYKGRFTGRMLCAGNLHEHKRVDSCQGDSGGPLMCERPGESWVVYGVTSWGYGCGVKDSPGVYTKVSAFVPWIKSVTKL
# Procedure Details: Determination of IC50 for human neurotrypsin
# Type: biochemical
# Experimental Context: human neurotrypsin; method of WO 2006/1103261; read-out: Neurotrypsin IC50
Please state the value followed by its unit.

The following compounds have reported results that may help.
Compound: O=C(Nc1ccc(C(=O)N2CCC(c3ccc(F)cc3)CC2)cc1C(=O)O)c1ccc(-c2nc3cc(Cl)c(Cl)cc3[nH]2)cc1 [Example 38]
Test Target: human neurotrypsin (Homo sapiens)
Endpoint Value: 4.8 µM
//
Compound: O=C(O)c1cc(C(=O)N2CCC(c3ccc(Cl)cc3)CC2)ccc1NC(=O)c1sc2ccccc2c1Cl [Example 115]
Test Target: human neurotrypsin (Homo sapiens)
Endpoint Value: 3.1 µM

Query: Give a short answer stating reported IC50 for COc1ccc(CC2CCN(C(=O)c3ccc(NC(=O)c4sc5ccccc5c4Cl)c(C(=O)O)c3)CC2)cc1 [Example 117] .
Reply: 2.9 µM

# credit: patent US20130261130A1
